I'd be grateful if you could share measured EC50 for these entries.
# Tested on: MRC5
# experimentalDetails: cells
# setupConditions: Homo sapiens, MRC5, 69 h
# Description: Antiproliferative activity against human MRC5 cells assessed as reduction cell viability incubated for 69 hrs by rezasurin dye based assay
Please respond with the number in µM and leave the unit unwritten.

Item: `Cc1nn(C)c(C)c1NS(=O)(=O)c1c(Cl)cc(CCCN2CCN(C)CC2)cc1Cl` | EC50: 31.4

Item: `Cc1nn(C)c(C)c1N(C(F)F)S(=O)(=O)c1c(Cl)cc(CCCN2CCN3CCC[C@@H]3C2)cc1Cl` | EC50: 3.1

Item: `Cc1nn(C)c(C)c1NS(=O)(=O)c1c(Cl)cc(CCCC2CCNCC2)cc1Cl` | EC50: 2.5

Item: `Cc1nn(C)c(C)c1NS(=O)(=O)c1c(Cl)cc(CCCC2CCN(C)CC2)cc1Cl` | EC50: 2.2
